# system-name: M2 (h) (Homo sapiens)
# Sequence (P08172 whole entry): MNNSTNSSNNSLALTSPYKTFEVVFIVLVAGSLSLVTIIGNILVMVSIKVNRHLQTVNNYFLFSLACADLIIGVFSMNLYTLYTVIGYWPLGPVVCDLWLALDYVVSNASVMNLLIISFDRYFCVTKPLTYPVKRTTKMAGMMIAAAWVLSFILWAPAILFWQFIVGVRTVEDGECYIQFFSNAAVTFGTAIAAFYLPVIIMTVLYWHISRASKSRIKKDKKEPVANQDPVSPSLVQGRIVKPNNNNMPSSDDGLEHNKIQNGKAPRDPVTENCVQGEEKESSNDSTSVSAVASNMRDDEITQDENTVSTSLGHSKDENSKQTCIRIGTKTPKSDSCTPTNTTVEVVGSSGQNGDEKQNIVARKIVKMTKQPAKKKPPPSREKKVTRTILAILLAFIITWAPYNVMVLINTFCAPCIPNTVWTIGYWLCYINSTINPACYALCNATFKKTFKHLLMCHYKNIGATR
# measurement-description: CEREP panel M2 (h) antagonist effect, cAMP HTRF
# assay-conditions: HCl salt tested; CHO cells, acetylcholine (300 nM)
# Source text: The use of in vitro pharmacological screening against a diverse range of targets (receptors, ion channels, enzymes and transporters) is used to identify undesirable off-target activity that may cause adverse drug reactions in humans. Screening panels (e.g. SafetyScreen44™ Panel, Eurofins) comprise a selection of off-targets linked with known issues in humans that could hinder or halt the development of drug candidates or market withdrawal if discovered after a drug is approved. […]
test-readout: pIC50
For clarity, pIC50 is expressed as the negative log10 of concentration in mol/L.

Given item NCc1ccc(C(=O)Nc2ccncc2F)cc1-c1cccc(C(=O)Nc2ccc(SC[C@@H]3CCOC3=O)cc2)c1 [R-enantiomer] , the value recorded as its pIC50 is 5.21

---

# measurement-description: Solubility testing in water, SGF, FaSSIF, FeSSIF at 37° C.
# Type: physicochemical
# assay-conditions: pH of sample in SGF (pH of media 1.2), 0.5 h
Structures can show the parent of a compound that is named as a salt.
Record form. Attribute: pH. Fill in for each entry.
Form rule: numeric answer, no unit written next to it.

Measured pH, NCc1ccc(C(=O)Nc2ccncc2F)cc1-c1cccc(C(=O)Nc2ccc(SC[C@H]3CCOC3=O)cc2)c1 [Freebase Form I] : 1.2

Entry under test: NCc1ccc(C(=O)Nc2ccncc2F)cc1-c1cccc(C(=O)Nc2ccc(SC[C@H]3CCOC3=O)cc2)c1 (stereo in doubt) [HCl salt Form I] . Its pH was 1.4

Entry NCc1ccc(C(=O)Nc2ccncc2F)cc1-c1cccc(C(=O)Nc2ccc(SC[C@H]3CCOC3=O)cc2)c1 [Succinate Form I] ; pH = 1.3

For this molecule ( NCc1ccc(C(=O)Nc2ccncc2F)cc1-c1cccc(C(=O)Nc2ccc(SC[C@H]3CCOC3=O)cc2)c1 [HCl salt Form II] ), measured pH is 1.2

---

# measurement-description: Solubility testing in water, SGF, FaSSIF, FeSSIF at 37° C.
# Type: physicochemical
# assay-conditions: FaSSIF (pH of media 6.5), 37° C., 0.5 h
Where a name gives a salt, the structure may show the parent alone.
Could you please report measured Solubility for the items listed next?

Entry under test: NCc1ccc(C(=O)Nc2ccncc2F)cc1-c1cccc(C(=O)Nc2ccc(SC[C@H]3CCOC3=O)cc2)c1 [Succinate Form I] . Its Solubility was 5 µg/mL

Solubility measured on NCc1ccc(C(=O)Nc2ccncc2F)cc1-c1cccc(C(=O)Nc2ccc(SC[C@H]3CCOC3=O)cc2)c1 (stereo in doubt) [HCl salt Form I] = 23 µg/mL

# Solubility of NCc1ccc(C(=O)Nc2ccncc2F)cc1-c1cccc(C(=O)Nc2ccc(SC[C@H]3CCOC3=O)cc2)c1 [Freebase Form I] = 14 µg/mL

// sample NCc1ccc(C(=O)Nc2ccncc2F)cc1-c1cccc(C(=O)Nc2ccc(SC[C@H]3CCOC3=O)cc2)c1 [HCl salt Form II] , its Solubility was 19 µg/mL

---

For each entry below, report its pEC50 value.
# system-name: μ (MOP) (h) (Homo sapiens, UniProt P35372)
# Sequence (P35372 whole entry): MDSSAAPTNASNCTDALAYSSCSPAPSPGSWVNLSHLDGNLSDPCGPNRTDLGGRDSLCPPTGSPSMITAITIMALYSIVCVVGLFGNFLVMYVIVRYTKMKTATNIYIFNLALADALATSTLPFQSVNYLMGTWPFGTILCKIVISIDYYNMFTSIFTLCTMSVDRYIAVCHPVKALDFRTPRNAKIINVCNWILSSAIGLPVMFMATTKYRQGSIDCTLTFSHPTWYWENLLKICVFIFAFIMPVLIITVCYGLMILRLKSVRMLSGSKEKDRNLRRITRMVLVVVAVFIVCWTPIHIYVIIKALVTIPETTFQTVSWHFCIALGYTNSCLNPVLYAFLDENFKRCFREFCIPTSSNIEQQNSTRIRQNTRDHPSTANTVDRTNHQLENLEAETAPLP
# measurement-description: CEREP panel mu (MOP) (h) agonist effect, cAMP HTRF
# assay-conditions: HCl salt tested, CHO cells
Expect pEC50 as a plain number equal to -log10 of the molar concentration.

Query NCc1ccc(C(=O)Nc2ccncc2F)cc1-c1cccc(C(=O)Nc2ccc(SC[C@@H]3CCOC3=O)cc2)c1 [R-enantiomer] yields pEC50 of 5.52

Quick note, pEC50 for NCc1ccc(C(=O)Nc2ccncc2F)cc1-c1cccc(C(=O)Nc2ccc(SC[C@H]3CCOC3=O)cc2)c1 [S-enantiomer] landed at 4.08
